target: L2 (DV1-GV2), soluble leucine zipper γδ TCR heterodimer of a delta variable 1 chain and a gamma variable 2 … (human); test: DELFIA ELISA, coated antigen;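 further: binding of antibody supernatants or protein-A purified antibodies to plate-coated antigen (3 µg/ml recombinant TCR or BSA), 1 h incubation at room temperature, DELFIA readout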
Sequence (chain, as listed by the source mutant, chain 1 of 2): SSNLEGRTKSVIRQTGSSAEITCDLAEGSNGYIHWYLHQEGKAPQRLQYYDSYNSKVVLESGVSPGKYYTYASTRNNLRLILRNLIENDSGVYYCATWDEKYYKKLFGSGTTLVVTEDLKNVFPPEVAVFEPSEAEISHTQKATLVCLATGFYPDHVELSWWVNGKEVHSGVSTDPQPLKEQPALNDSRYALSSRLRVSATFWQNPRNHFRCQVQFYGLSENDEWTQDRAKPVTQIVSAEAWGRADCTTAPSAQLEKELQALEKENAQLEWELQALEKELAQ
Sequence (chain, as listed by the source mutant, chain 2 of 2): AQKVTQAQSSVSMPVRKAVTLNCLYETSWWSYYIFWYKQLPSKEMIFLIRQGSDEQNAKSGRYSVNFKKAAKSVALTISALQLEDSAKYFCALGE
Examples of binders with documented DELFIA ELISA response (FU) follow.
Reply numerically in FU, unit not repeated.

Some solved cases for reference:
1. G4_15 (antibody, human IgG1, V domains shown, also called clone G4_15) VH: EVQLVQSEAEVKKPGASVKVSCKASGYTFTRHYMHWVRQAPGQGLEWMGLINPSGSSTVYAQKFQGRVTLTRDTSTSTDYMELSSLRSEDTAVYYCARDNSHLDQVWWFDPWGQGTLVTVSS VL: SQSALTQPASVSGSPGQSITISCTGTSSDVGGYNYVSWYQQHPGKAPKLMIYDVSNRPSGVSNRFSGSKSGNTASLTISGLQAEDEADYYCSSYGSGSVFGTGTKLTVLG ... 844
2. G4_3 (antibody, human IgG1, V domains shown, also called 1139_P01_A04; G4_03) VH: EVQLVESGGGLVQPGGSLRLSCAASGFTFSSYSMNWVRQAPGKGLEWVSSISSSSSYIYYADSVKGRFTISRDNSKNTLYLQMNSLRAEDTAVYYCARGGWLYDYWGQGTLVTVSS VL: DIQMTQSPSSLSASVGDRVTITCQASQDISNYLNWYQQKPGKAPKLLIYDASNLETGVPSRFSGSGSGTDFTLTISSLQPEDFATYFCQQSYSTPQTFGQGTKVDIKR ... 216

Shifting focus to the binder that follows.
Note DELFIA ELISA response (FU) for the binder shown: G4_26 (antibody, human IgG1, V domains shown, also called clone G4_26) VH: QVQLVQSGAEVKKPGSSVKVSCKASGGTFSSYAISWVRQAPGQGLEWMGGIIPIFGTANYAQKFQGRVTITADESTSTAYMELSSLRSEDTAVYYCASSRGSGWFPLGYWGQGTLVTVSS VL: SQSGLTQPASVSGSPGQSITISCTGTSSDVGSYNLVSWYQQHPGKAPKLMIYEVSKRPSGVSNRFSGSKSGNTASLTISGLQAEDEADYYCSSFGSGSIFGTGTKLTVLG
680
